Where do these numbers come from? They come from patent US20140323418A1.

IC50 values, listed per item
molecular target: full length active recombinant SYK enzyme (Homo sapiens, UniProt P43405); construct: full length active recombinant SYK enzyme (Millipore, Calif.); experiment: Inhibition of Syk tyrosine phosphorylation activity (LANCE TR-FRET kinase assay); conditions: 1 nM SYK, 550 nM substrate, 100 μM ATP, 1 hour room temperature

Please review the following examples before continuing.
{"Compound": "CC[C@@H](Nc1ncc(C(N)=O)c(Nc2cnc3ccccc3c2)n1)C(N)=O [Example 68]", "Target": "full length active recombinant SYK enzyme (Homo sapiens, UniProt P43405)", "Measured Parameter": "IC50", "Obs Value": "0.01 to 0.1 µM"}
{"Compound": "NC(=O)c1cnc(N[C@H]2CN[C@H](C(=O)O)C2)nc1Nc1cnc2ccccc2c1 [Example 217]", "Target": "full length active recombinant SYK enzyme (Homo sapiens, UniProt P43405)", "Measured Parameter": "IC50", "Obs Value": "> 1 µM"}
{"Compound": "CCn1ccc2c(Nc3nc(NCC(C)C)ncc3C(N)=O)cccc21 [Example 116]", "Target": "full length active recombinant SYK enzyme (Homo sapiens, UniProt P43405)", "Measured Parameter": "IC50", "Obs Value": "0.1 to 1 µM"}
{"Compound": "[N-]=[N+]=N[C@H]1CCCC[C@H]1Nc1ncc(C(N)=O)c(Nc2cccc(-n3nccn3)c2)n1 [Example 8]", "Target": "full length active recombinant SYK enzyme (Homo sapiens, UniProt P43405)", "Measured Parameter": "IC50", "Obs Value": "0.1 to 1 µM"}

IN: Answer with IC50 of Cc1cccc(Nc2nc(N[C@H](C(C)C)C3(N)CC3)ncc2C(N)=O)c1 [Example 144] measured for full length active recombinant SYK enzyme (Homo sapiens, UniProt P43405).
OUT: 0.001 to 0.01 µM

IN: Answer with IC50 of NC(=O)c1cnc(N[C@H](c2ccccc2)C2(N)CC2)nc1Nc1cccc(-n2nccn2)c1 [Example 149] measured for full length active recombinant SYK enzyme (Homo sapiens, UniProt P43405).
OUT: 0.01 to 0.1 µM

IN: Answer with IC50 of NC(=O)c1cnc(N[C@@H]2[C@H](F)CCC[C@@H]2N)nc1Nc1cccc(-n2nccn2)c1 (racemic) [Example 175] measured for full length active recombinant SYK enzyme (Homo sapiens, UniProt P43405).
OUT: 0.01 to 0.1 µM

IN: Answer with IC50 of COc1cccc(Nc2ncc(C(N)=O)c(NC3CCC(N)CC3)n2)c1 (stereo in doubt) [Example 247] measured for full length active recombinant SYK enzyme (Homo sapiens, UniProt P43405).
OUT: 0.01 to 0.1 µM
